# Protocol Text: CCTE_Shafer_MEA_acute_burst_percentage_mean: CCTE's Neural Acute Assay for Percentage of Spikes in a Burst, Shafer Lab (AID 2284017)
Active and inactive are the calls of the source. The calls were made as follows: active = hit-call score of the fitted dose curve at least 0.9, where 1 is the maximum; inactive = score below 0.9.
Outcomes: Y (active), N (inactive)

INSERT INTO assay_data (compound, answer_label) VALUES
  ('CC(C)(C)c1cc(O)c(C(C)(C)C)cc1O', 'N'),
  ('CC(=O)C(C)=CC1C(C)=CCCC1(C)C (stereo not given)', 'Y'),
  ('C=CCc1ccc(O)c(OC)c1', 'N'),
  ('Cc1ccc2ncccc2c1', 'N'),
  ('NS(=O)(=O)c1cc2c(cc1Cl)NCNS2(=O)=O', 'N');

---

# Protocol Text: BSK_LPS_PGE2: BioMAP Diversity Plus: LPS Assay for Prostaglandin E2 (PGE2) Biomarker Activity (AID 2283082)
# Recorded Conditions: primary human HUVEC with PBMC; actives raise or lower the signal
The source made the active and inactive calls. How the source made its calls: active means hit-call score of the fitted dose curve at least 0.9, where 1 is the maximum; inactive means score below 0.9.
Labels: true (1) = active, false (0) = inactive

INSERT INTO measurements (molecule, answer_label) VALUES
  ('Cc1cccc(C)c1O', 'true (1)'),
  ('CCCCCCCCCCC', 'false (0)'),
  ('COCCOCCOC', 'false (0)'),
  ('CC1(C)CC(N=C=O)CC(C)(CN=C=O)C1 (centres undefined)', 'false (0)'),
  ('CC(=O)OC/C=C(\C)CCC=C(C)C', 'false (0)'),
  ('CCCCCCCC=O', 'false (0)'),
  ('Cc1ccc(C)c(C)c1', 'false (0)'),
  ('CC(=O)OCCOCCOCCOC(C)=O', 'false (0)'),
  ('CCCCCCC(=O)OCC', 'false (0)');

---

# Target Entity: rat Serotonin, 5-Hydroxytryptamine Receptor 1 (5HT1), Non-Selective Binding, Htr1a (gene 24473) (UniProt P19327)
# Sequence (P19327 whole entry, looked up): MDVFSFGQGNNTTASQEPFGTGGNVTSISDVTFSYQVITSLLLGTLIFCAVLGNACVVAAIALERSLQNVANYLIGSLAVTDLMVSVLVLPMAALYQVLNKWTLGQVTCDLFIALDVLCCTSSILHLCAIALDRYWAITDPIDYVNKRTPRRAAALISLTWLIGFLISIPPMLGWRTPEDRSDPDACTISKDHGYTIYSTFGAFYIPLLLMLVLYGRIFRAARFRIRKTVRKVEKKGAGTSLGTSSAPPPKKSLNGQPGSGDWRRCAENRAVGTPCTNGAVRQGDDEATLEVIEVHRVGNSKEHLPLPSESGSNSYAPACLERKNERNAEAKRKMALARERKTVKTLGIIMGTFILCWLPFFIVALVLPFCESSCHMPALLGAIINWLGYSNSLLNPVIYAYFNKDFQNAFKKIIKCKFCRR
# Protocol Text: NVS_GPCR_r5HT1_NonSelective: NovaScreen (NVS) G Protein-Coupled Receptor Assay for rat Serotonin, 5-Hydroxytryptamine Receptor 1 (5HT1), Non-Selective Binding (AID 2283286)
Records with an inconclusive call do not appear. Activity calls are given as the source filed them. How the source made its calls: active means hit-call score of the fitted dose curve at least 0.9, where 1 is the maximum; inconclusive means response in the unintended direction; inactive means score below 0.9.
Classes used: active, inactive

INSERT INTO results (molecule, answer_label) VALUES
  ('COCCOC[C@H](CC1(C(=O)NC2CCC(C(=O)O)CC2)CCCC1)C(=O)Oc1ccc2c(c1)CCC2 (some centres undefined)', 'inactive'),
  ('Cc1c(C(=O)O)c(O)cc2c1C(=O)c1c(O)c([C@@H]3O[C@H](CO)[C@@H](O)[C@H](O)[C@H]3O)c(O)c(O)c1C2=O', 'inactive'),
  ('NC(=O)Cn1c(=O)cc(CCN2CCN(c3nccc4sccc34)CC2)c2ccc(F)cc21', 'active'),
  ('COc1cc(S(=O)(=O)O)c(C)cc1N=Nc1c(O)ccc2cc(S(=O)(=O)O)ccc12', 'active');

---

# Target Entity: rat Serotonin Transporter (SERT), Slc6a4 (gene 25553)
# Protocol Text: NVS_TR_rSERT: NovaScreen (NVS) Transporter Assay for rat Serotonin Transporter (SERT) (AID 2283375)
Records with an inconclusive call do not appear. Calls of active or inactive are those of the source. The calls were made as follows: active = hit-call score of the fitted dose curve at least 0.9, where 1 is the maximum; inconclusive = response in the unintended direction; inactive = score below 0.9.
Classes used: true for active, false for inactive

INSERT INTO measurements (compound, answer_label) VALUES
  ('Cc1c(C(=O)O)c(O)cc2c1C(=O)c1c(O)c([C@@H]3O[C@H](CO)[C@@H](O)[C@H](O)[C@H]3O)c(O)c(O)c1C2=O', 'false'),
  ('CCCCCC(=O)O', 'false'),
  ('O=C(N[C@@H](Cc1ccccc1)[C@@H](O)C(=O)N1C[C@@H](O)[C@@H](O)C1)c1cc2cc(Cl)ccc2[nH]1', 'true'),
  ('Cc1nc(-c2ccc3c(c2)CCN(CCC2CCC(NC(=O)/C=C/c4ccc(F)cc4)CC2)CC3)no1 (centres undefined)', 'true');
